- Experimental protocol: Titration of oxidizable bromine (Standard Methods, Method 408A)
- Format: physicochemical
- Measurement context: completely soluble perbromides, aqueous solution (Table 1)
The compounds listed here are annotated with their Tit. Ox. Br2.
Property measured: Tit. Ox. Br2

>>> val("CNCCO [Compound 5, Methylethanolammonium Perbromide]")
"39.3 % by Weight"
>>> val("CCCN [Compound 3, Propylammonium Perbromide]")
"39.3 % by Weight"
>>> val("CCCCCCCCN [Compound 9, Octylammonium Perbromide]")
"34.7 % by Weight"
>>> val("CCNCCO [Compound 6, Ethylethanolammonium Perbromide]")
"37.7 % by Weight"
>>> val("CCCCCCN [Compound 8, Hexylammonium Perbromide]")
"36.1 % by Weight"
